target-of-assay: human serum albumin (human) (UniProt P02768)
Sequence (P02768 25-609 limits assumed): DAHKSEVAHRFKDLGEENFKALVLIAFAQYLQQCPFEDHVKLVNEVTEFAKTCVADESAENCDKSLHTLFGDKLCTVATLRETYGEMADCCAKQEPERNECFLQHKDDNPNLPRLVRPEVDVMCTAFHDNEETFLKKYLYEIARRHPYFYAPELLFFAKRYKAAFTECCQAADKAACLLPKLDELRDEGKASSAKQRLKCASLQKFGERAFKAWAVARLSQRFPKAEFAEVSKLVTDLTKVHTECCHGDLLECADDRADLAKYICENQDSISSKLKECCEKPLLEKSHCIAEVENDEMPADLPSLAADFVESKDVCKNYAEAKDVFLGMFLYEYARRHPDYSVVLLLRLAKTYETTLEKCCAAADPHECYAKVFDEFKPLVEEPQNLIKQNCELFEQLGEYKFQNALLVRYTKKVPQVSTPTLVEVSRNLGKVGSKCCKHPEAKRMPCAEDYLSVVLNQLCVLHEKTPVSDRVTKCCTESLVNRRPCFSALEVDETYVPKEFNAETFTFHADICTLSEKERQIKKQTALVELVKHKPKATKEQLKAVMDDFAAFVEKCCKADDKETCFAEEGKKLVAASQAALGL
procedure-text: screening ELISA
measure-name: HSA

binder | measure-name | test-result
SEQ ID NO 130 (designed binder) MLPAPKNLVVSRVTEDSARLSWTAPDAAFDSFHIPYVEAEVPGEAIQLHVPGSERSYDLTGLKPGTEYYVEIWGVKGGFYSPPLIAEFTT | HSA | 6050

A: SEQ ID NO 262 (designed binder) MLPAPKNLVVSRVTEDSARLSWTAPDAAFDSFAIEYFEYTGEGEAIVLTVPGSERSYDLTGLKPGTEYYVGIYGVKGGYLSRPLSAIFTT
B: SEQ ID NO 88 (designed binder) MLPAPKNLVVSRVTEDSARLSWTAPDAAFDSFWIEYFEWTVGGEAIVLTVPGSERSYDLTGLKPGTEYYVSIYGVKGGWLSPPLSAIFTT
Of the two listed items, which has the higher HSA? First: A Second: B # respond with the chosen item's label B
(B: 6000, A: 2350)
